test system: Mannheimia haemolytica; test: minimum inhibitory concentration (MIC); conditions: isolate (source animal id): 21
MEASURE_NAME: minimum inhibitory concentration

INSERT INTO assay_data (molecule, study_target, result) VALUES
  ('C=C[C@]1(C)C[C@@H](OC(=O)CSCCN(CC)CC)[C@]2(C)[C@H](C)CC[C@]3(CCC(=O)[C@H]32)[C@@H](C)[C@@H]1O', 'Mannheimia haemolytica', '8 µg/mL'),
  ('CC[C@H]1OC(=O)C[C@@H](O)[C@H](C)[C@@H](O[C@@H]2O[C@H](C)[C@@H](O[C@H]3C[C@@](C)(O)[C@@H](O)[C@H](C)O3)[C@H](N(C)C)[C@H]2O)[C@@H](CC=O)C[C@@H](C)C(=O)/C=C/C(C)=C/[C@@H]1CO[C@@H]1O[C@H](C)[C@@H](O)[C@@H](OC)[C@H]1OC', 'Mannheimia haemolytica', '> 32 µg/mL'),
  ('CC1(C)S[C@@H]2[C@H](NC(=O)[C@H](N)c3ccccc3)C(=O)N2[C@H]1C(=O)O', 'Mannheimia haemolytica', '≤ 0.25 µg/mL'),
  ('NC[C@@H]1O[C@H](O[C@H]2[C@@H](O)[C@H](O[C@@H]3[C@@H](O)[C@H](N)C[C@H](N)[C@H]3O[C@H]3O[C@H](CN)[C@@H](O)[C@H](O)[C@H]3N)O[C@@H]2CO)[C@H](N)[C@@H](O)[C@@H]1O', 'Mannheimia haemolytica', '> 32 µg/mL'),
  ('CNC(C)C1CCC(N)C(OC2C(N)CC(N)C(OC3OCC(C)(O)C(NC)C3O)C2O)O1 (stereo not given)', 'Mannheimia haemolytica', '2 µg/mL');

###

system: Pasteurella multocida; assay: minimum inhibitory concentration (MIC); details: isolate (source animal id): 207
MEASURE_NAME: minimum inhibitory concentration

INSERT INTO measurements (substance_smiles, measure_name, result) VALUES
  ('C=C[C@]1(C)C[C@@H](OC(=O)CSCCN(CC)CC)[C@]2(C)[C@H](C)CC[C@]3(CCC(=O)[C@H]32)[C@@H](C)[C@@H]1O', 'minimum inhibitory concentration', '32 µg/mL'),
  ('COc1cc(Cc2cnc(N)nc2N)cc(OC)c1OC.Cc1cc(NS(=O)(=O)c2ccc(N)cc2)no1', 'minimum inhibitory concentration', '≤ 2 µg/mL'),
  ('CN(C)[C@@H]1C(O)=C(C(N)=O)C(=O)[C@@]2(O)C(O)=C3C(=O)c4c(O)cccc4[C@@](C)(O)[C@H]3C[C@@H]12', 'minimum inhibitory concentration', '> 8 µg/mL'),
  ('CCCN1C[C@H](C)[C@@H](O)[C@](C)(O)[C@@H](CC)OC(=O)[C@H](C)[C@@H](O[C@H]2C[C@@](C)(OC)[C@@H](O)[C@H](C)O2)[C@H](C)[C@@H](O[C@@H]2O[C@H](C)C[C@H](N(C)C)[C@H]2O)[C@](C)(O)C[C@H]1C', 'minimum inhibitory concentration', '≤ 1 µg/mL'),
  ('CO/N=C(\C(=O)N[C@@H]1C(=O)N2C(C(=O)O)=C(CSC(=O)c3ccco3)CS[C@H]12)c1csc(N)n1', 'minimum inhibitory concentration', '≤ 0.25 µg/mL'),
  ('CCN1CCN(c2cc3c(cc2F)c(=O)c(C(=O)O)cn3C2CC2)CC1', 'minimum inhibitory concentration', '≤ 0.12 µg/mL'),
  ('CN[C@@H]1[C@H](O)[C@H](NC)[C@H]2O[C@@]3(O)C(=O)C[C@@H](C)O[C@H]3O[C@@H]2[C@H]1O', 'minimum inhibitory concentration', '> 64 µg/mL'),
  ('CC[C@H]1OC(=O)C[C@@H](O)[C@H](C)[C@@H](O[C@@H]2O[C@H](C)[C@@H](O)[C@H](N(C)C)[C@H]2O)[C@@H](CCN2C[C@H](C)C[C@H](C)C2)C[C@@H](C)C(=O)/C=C/C(C)=C/[C@@H]1CO[C@@H]1O[C@H](C)[C@@H](O)[C@@H](OC)[C@H]1OC', 'minimum inhibitory concentration', '8 µg/mL');

###

The entries below come with measured minimum inhibitory concentration values attached.
test system: Escherichia coli; assay: minimum inhibitory concentration (MIC); conditions: isolate (source animal id): 103
MEASURE_NAME: minimum inhibitory concentration

INSERT INTO assay_data (compound, result) VALUES
  ('CO/N=C(\C(=O)N[C@@H]1C(=O)N2C(C(=O)O)=C(CSC(=O)c3ccco3)CS[C@H]12)c1csc(N)n1', '0.5 µg/mL'),
  ('CC[C@H]1OC(=O)C[C@@H](O)[C@H](C)[C@@H](O[C@@H]2O[C@H](C)[C@@H](O[C@H]3C[C@@](C)(O)[C@@H](O)[C@H](C)O3)[C@H](N(C)C)[C@H]2O)[C@@H](CC=O)C[C@@H](C)C(=O)/C=C/C(C)=C/[C@@H]1CO[C@@H]1O[C@H](C)[C@@H](O)[C@@H](OC)[C@H]1OC', '> 32 µg/mL'),
  ('CC1(C)S[C@@H]2[C@H](NC(=O)Cc3ccccc3)C(=O)N2[C@H]1C(=O)O', '> 8 µg/mL'),
  ('CN1C[C@@H]2C[C@H]1CN2c1cc2c(cc1F)c(=O)c(C(=O)O)cn2C1CC1', '≤ 0.12 µg/mL'),
  ('CN[C@@H]1[C@H](O)[C@H](NC)[C@H]2O[C@@]3(O)C(=O)C[C@@H](C)O[C@H]3O[C@@H]2[C@H]1O', '> 64 µg/mL'),
  ('CNC(C)C1CCC(N)C(OC2C(N)CC(N)C(OC3OCC(C)(O)C(NC)C3O)C2O)O1 (stereo unspecified)', '≤ 1 µg/mL');

###

The entries below come with measured minimum inhibitory concentration values attached.
tested on: Escherichia coli; assay: minimum inhibitory concentration (MIC); conditions: isolate (source animal id): 165
MEASURE_NAME: minimum inhibitory concentration

INSERT INTO results (substance_smiles, study_target, result) VALUES
  ('COc1cc(Cc2cnc(N)nc2N)cc(OC)c1OC.Cc1cc(NS(=O)(=O)c2ccc(N)cc2)no1', 'Escherichia coli', '≤ 2 µg/mL'),
  ('CCN1CCN(c2cc3c(cc2F)c(=O)c(C(=O)O)cn3C2CC2)CC1', 'Escherichia coli', '≤ 0.12 µg/mL'),
  ('CO/N=C(\C(=O)N[C@@H]1C(=O)N2C(C(=O)O)=C(CSC(=O)c3ccco3)CS[C@H]12)c1csc(N)n1', 'Escherichia coli', '≤ 0.25 µg/mL'),
  ('CC[C@H]1OC(=O)C[C@@H](O)[C@H](C)[C@@H](O[C@@H]2O[C@H](C)[C@@H](O)[C@H](N(C)C)[C@H]2O)[C@@H](CCN2CCCCC2)C[C@@H](C)C(=O)/C=C/C(C)=C/[C@@H]1CN1CCCCC1', 'Escherichia coli', '4 µg/mL');

###

test system: Histophilus somni; test: minimum inhibitory concentration (MIC); details: isolate (source animal id): 140
MEASURE_NAME: minimum inhibitory concentration (µg/mL)

INSERT INTO measurements (substance_smiles, lt_gt_eq, recorded_number) VALUES
  ('C=C[C@]1(C)C[C@@H](OC(=O)CSCCN(CC)CC)[C@]2(C)[C@H](C)CC[C@]3(CCC(=O)[C@H]32)[C@@H](C)[C@@H]1O', '=', 2),
  ('COc1cc(NS(=O)(=O)c2ccc(N)cc2)nc(OC)n1', '≤', 256),
  ('CC[C@H]1OC(=O)C[C@@H](O)[C@H](C)[C@@H](O[C@@H]2O[C@H](C)[C@@H](O)[C@H](N(C)C)[C@H]2O)[C@@H](CCN2CCCCC2)C[C@@H](C)C(=O)/C=C/C(C)=C/[C@@H]1CN1CCCCC1', '=', 2),
  ('COc1cc(Cc2cnc(N)nc2N)cc(OC)c1OC.Cc1cc(NS(=O)(=O)c2ccc(N)cc2)no1', '>', 2),
  ('CCCNC[C@]1(O)[C@H](C)O[C@@H](O[C@H]2[C@H](C)[C@@H](O[C@@H]3O[C@H](C)C[C@H](N(C)C)[C@H]3O)[C@](C)(O)C[C@@H](C)CN[C@H](C)[C@@H](O)[C@](C)(O)[C@@H](CC)OC(=O)[C@@H]2C)C[C@@]1(C)OC', '≤', 8),
  ('CC[C@H]1OC(=O)C[C@@H](O)[C@H](C)[C@@H](O[C@@H]2O[C@H](C)[C@@H](O)[C@H](N(C)C)[C@H]2O)[C@@H](CCN2C[C@H](C)C[C@H](C)C2)C[C@@H](C)C(=O)/C=C/C(C)=C/[C@@H]1CO[C@@H]1O[C@H](C)[C@@H](O)[C@@H](OC)[C@H]1OC', '=', 4),
  ('CCN1CCN(c2cc3c(cc2F)c(=O)c(C(=O)O)cn3C2CC2)CC1', '≤', 0.12);
